# Method Description: yeast display, Sf9 membrane polyspecificity reagent, FACS + sequencing; frameworks hold sequencing errors
Property Name: polyreactivity (PSR sort gate)

Observe how each entry below is paired with its result.
QVQLVESGGGLVQAGGSLRLSCAASGFTFCDYAKGWYRQATGKERELVAAISDNDGSTDYADSVKGRFTISRDNAKNTVYLQMTRLKPEDSAVYYCNAESELPSKEGDYWGLGTQVTVSS | low polyreactivity
QVQLVESGGGLVQAGGSLRLSCAASGSTFWFNDMGWYRQAPGKEREFVAAISSIGGSTYYADSVKGRFTISRDNAKNTVYLQMNSLKPEDTAVYNCAVEVVRVYRYDYWGQGTQVTVSS | low polyreactivity
QVQLVESGGGLVQAGGSLRLSCAASGSTFVYYAMGLYRQAPGKERELVAAITASGGGTYYADSVKGRFTISRDNAKNPVYLQMNSLKPEVTAVYYCNRGYDYWGQGTQVTVSS | low polyreactivity
QVQLVESGGGLVQAGGSLRLSCAASGRTFGAYAMGWYRQAPGKERELVAAISNGGRTYYADSVKGRFTISRDNAKNTVYLQMNSLKPEDTAVYYCNKVRSPWYDSWGQGTQVTVSS | high polyreactivity
QVQLVESGGGLVQAGGSLRLSSAASGRIFRYYTMGWYRQAPGKERELVATITSDGRTNYADSVNGRFTISRDNAKNSVYLQMNSLKPEDTAVYYCAARYVMGGQGTSRRVGGGYWGQGTQVTVSS | high polyreactivity

Provide measured polyreactivity (PSR sort gate) value, entry: QVQLVESGGGLVQAGGSLRLSCAASGRIFPTNAMGWSRQAPGKERELVASITRSGSTYYADSVKGRFTISRDHAKNTVYLQMNSLKPEDTAVYYCAGYAYIFLDWGGYPYYLYEYDYWGQGTQVTVSS
low polyreactivity

Please report the measured polyreactivity (PSR sort gate) for QVQLVESGGGLVQAGGSLRLSCAASGSPFTRYTMGWYRHAPGKERELVASITRTGSTNYADSVKGRFTISRDNAKNTLYFQMNSLKPEDTAVYYCAAGRYYSYRFSFGYWGQGTQVTVSS
high polyreactivity

Fill in reported polyreactivity (PSR sort gate) for this entry: QVQLVESGGGLVQAGGSLRLSCAASGFTFAPNAMGWYRPAPGKEWELVAAISSASSTYYADSVKGRFTISRDNAKYNVYLQMKSLLPEDTAVYYCNAYYWFGPGRDYWGQGTQVTVSS
high polyreactivity

Write down polyreactivity (PSR sort gate) measured for item QVQLVESGGGLVQAGGSLRLSCAASGSTFGRNAMGWYRQAPGNERELVAAISKRGGSTYYADSVKGRFTISRDNAKNTVYLQMNSLKPEDTAVYYCAKDVEGLGRRYRWYNYWGQGTQVTVSS
high polyreactivity

// fetch polyreactivity (PSR sort gate) given entry QVQLVESGGGLVQAGGSLRLSCAASGRTFYNAMGWYRQAPVKEMELVAAITTGGGTKYADSVKGRFTISRDNAKNTFYLQMNSLKPEDTAVYYCNTDEWYHFYHGAHKYDYWGQGTQVTLSS
low polyreactivity

Given the sequence QFQLVESGGGLVQAGGSLRLSCAASGSIFDSYYMGWYRQAPGKEREMVAAITSGGSTNYADSVKGRFTISRDNAKNTVYLQMNSLKPEDTAVYYCAAYYWYPVYYGYEYWGQGTQVTVSS , write its reported polyreactivity (PSR sort gate).
low polyreactivity

====

# Method Description: yeast display, Sf9 membrane polyspecificity reagent, FACS + sequencing; frameworks hold sequencing errors
Property Name: polyreactivity (PSR sort gate)

QVQHVESVGCLVQAGGTLRLSCASSVRTFLWYTMGWYRQAPGKKRELVATITSGGRTNYADSVKGRFTISRDNAKNTVYLQMNSLNPEDTAVYYCARLGAYTGRYDYWGQGTQVTVSS | high polyreactivity
QVQRVESGRGLVQAGGSLRLRCAASGNIFPWSAMGWSRQAPGKERELVAAITSGGGSTYYGDSVKGRFTISRDNAKNTVYLQMNRLKPEDTAVYYCNAESAFVSYYSEDYDYWGQGTQVTVSS | low polyreactivity
QVQLVESGGCLVQAGGSLRLSCAASGSTFSPYAMGWYRQAPGKERELVAGITGRGGRTYYADSVKGRFTISRDNAKNTVYLQMNSLKPEDTAVYYCAAKYYGNKRDLYYWGQGTQVTVSS | low polyreactivity
QDQLVESRGGLVQAGGSLRLSCAASGFTFGRYAMGWYRQAPGKERELVAVITSSGGRTYYADSVKGRFTISRDNAKNTVYLQMNSLKPEDTAVYYCHKYPLRLYGYDYWGQGTQVTVSS | high polyreactivity

Field: next sequence
Dear colleague, please send me the reported polyreactivity (PSR sort gate) for QVQLGESGGGLVQAGGSLRLICAASGLTFSYNDMGWYRQAPGKERELVAGITSNGGSTYYADSVKGRFTITRDNAKNTVYLQMNSLNPEDTAVYYCAAEQYVGVKPFLSDSWGQGNQVTVSS when you can.
low polyreactivity

====

# Method Description: yeast display, Sf9 membrane polyspecificity reagent, FACS + sequencing; frameworks hold sequencing errors
Property Name: polyreactivity (PSR sort gate)

QVQLVESGGGLVQAGGSLRLSCAASGRIFPTYAMGWYRQAPGKERELFAGITSGGRTNYADSVKGRFTISRDNAKNTVYLQMNSLKPEDTAVYYCAKRVWPRDQYGKRNPRMDYWGQGTQVTVSS | high polyreactivity
QVQLVESGGGRVQAGGSLRLRCAASGRTFRYYAMVWYRQAPGKERELVAAISRTGGSTYYADSVKGRFTISRDNAKNNVYLQMNSLKPEDTAVYYCAARYAEYGSWGQGTQVTVSS | high polyreactivity
QVQLVESGGGLVQAGGSLLLICAASGSIFYFYTMGWYRQAPGKERELVASITYSGGRTYYADSVKWSFTMSRDNAKHTVYLQMNSLKPEDPPVDYCAVRGYRRYWGQGTQVTVSS | high polyreactivity

====

# Method Description: yeast display, Sf9 membrane polyspecificity reagent, FACS + sequencing; frameworks hold sequencing errors
Property Name: polyreactivity (PSR sort gate)

Before answering, review these 10 worked examples.
QVQLVESGGGLVQAGGSLRLRSAATGRTYRLYAMGWYRQAPGKERELVAAITRGGRTNYADSVKGRFTISRDNAKNTVYLEMNSLKPEDTAVYYCAARYRLPIPGTQYEYWGQGTQVTVSS | low polyreactivity
QVQLVESGGGLVQAGGSLRLSCAASGRIFKWYAMGWYRQAPGKERELVAVITVSGGSTTYADSVKGRFTISLDNAKNTVYLQMNSLKQEDTAVYYCNAVYYRSRFGTSIRYDYWGQGTQVTVSS | high polyreactivity
QVQLVESGGGLVQAGGSLRLSCAASGITFTFNAMGWYRQAPGKERELVAAITWSGGSTFYADSVKGRFTFSRDNAKNTVYLQMNSLKPEDTAVYYCARDTELYVRWLDYWVQGTQVTVSS | low polyreactivity
QVQLVESGGGIVHAGGSLRLSCAASGSTIDVYDMGWYRQAPGKERELVAAITTSGGGTYYADSVKGRFTISRDNAKNTVYLQMNRLKPEDTAVYYCAADTWRDGDDYWGQGTQVTVSS | low polyreactivity
QVQLVESAGGLVQAGGSLRLSCAASGSIFYRNVMAWYRQAPGQERELVAAITWSGGSTYYADSVKGRFTISRDNAKNTVYLQMNSLKPEDTAVYFCAAASKATYRGKVSGYYYWGQGTQVTVSS | high polyreactivity
QVQLVESGGGLVQAGGSLGLTCAASGFILAQNAMGWYRQAPGKERELVAAISRRGGRTSYADSVKGRFTISRDYAKNTVYLQMNSLKPEDTAVYYCAALPPRASSDAGGWYVAEDYWGQGTQVTVSS | high polyreactivity
QVQLVESGGGLVQAGGSLRLSCAASGIIIDSNAMGWYRQAPGKERELVAAITSGGSTKYADSVKGRFTISRDNAKNTVYLQMNSLKPEDTAVYYCAAGGSYYRDDYWGQGTQVTVSS | low polyreactivity
QVQLVESGGGLFQAGGTLRLSCDASGLIFLSYGMAWYRQAPGKERELVAAISSGGSTYYADSVKGRFTISRDNAKNTDYLQMNSLKPEDTAVYYCASEQPIEFDHWGQGTQVTVSS | low polyreactivity
QVQLVESGGGIVQAGGSLRLSCAASGSIFDVYAMGWYRQAPGKERELVAAITWRGGNTYYADSVKGRFTISRDNAKNTVYLQMNSLKPEDTAVYYCNALHRIRYTPSSRYDYWGQGTQVTVSS | low polyreactivity
QVQLVESGGGLVQAGGSLRLSCAASGRILTKYAMGWYRQAPGKERELVAAISDSGTGTYYADSVKGRFTISRDNAKNTVYLQMNSLKPEDTAVYYCHAQTRRTRTYHGHKYGYWGQGTQVTVSW | high polyreactivity

Would you kindly look at the next entry?
Tell me its polyreactivity (PSR sort gate) given QVQLVESGGGLVQAGGSLRISCAASGNIFSYYAMGWYRQAPGKERELVAAISSGGSTYYADSVKGRFTISRDNGMNTVYLQMNSLKPEDTAVYYCNKLAYVGRYGYWGQGTEVTVSS as the entry.
high polyreactivity
